FYI, the data here is from the supplement of paper PMC10567573.

B1: FAM46C (parent)
chain: FDHLQNRLIATKNPEEIRGGGLLK

- Variants of: B1
- measurementNotes: protein stability index of a GFP-peptide fusion (GPS, HEK-293T) (PSI 1-6); higher = more stable;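 note: lentivirally expressed fusions sorted by FACS into six bins by GFP to DsRed ratio, PSI derived from sequencing read proportions per bin multiplied by bin number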
- runParameters: c terminus: a fixed tail appended
Measured protein stability index by item
Lab note: write the figure by itself, no unit.

The examples below pair each entry with its known result.
INSERT INTO measurements (alteration, quantitykind, observedmeasurement) VALUES
  ('I9S', 'protein stability index', 3.98),
  ('G20R', 'protein stability index', 4.03),
  ('L23I', 'protein stability index', 4.02),
  ('I17T', 'protein stability index', 4.01),
  ('K24A', 'protein stability index', 2.94);

Consider the record given below.
Problem: Determine from records and report protein stability index for Q5S
Result: 4
